Origin of values: PubChem BioAssay (NCI)

Tested on: 786-0 renal
Assay Details: NCI tumour cell line growth inhibition, 48 h
// reported TGI for each item listed
Measured Property: TGI

compound="CC(C)(C)c1cc(C2=NN(c3ccccc3)C(c3ccccc3)C2)cc(C(C)(C)C)c1O (stereo not given)" reported="> 100 µM"
compound=O=C(/C=C/c1cc([N+](=O)[O-])ccc1Cl)c1ccccc1 reported="32 µM"
compound=O=[N+]([O-])c1c(Br)sc(Br)c1[N+](=O)[O-] reported="3.25 µM"
compound=CCCCN1C(=O)c2c(-c3sccc3N)sc(-c3sccc3N)c2C1=O reported="21.1 µM"
compound=Cc1cc(Cl)ccc1NC(=O)c1cc2ccccc2cc1O reported="> 100 µM"
compound="O=[N+]([O-])c1cccc(C2ON2C2CCCCC2)c1 (stereo not given)" reported="31.2 µM"
compound=N#CCCN(CCC#N)c1ccc(/C=C2\N=C(c3ccccc3)N(NC(N)=S)C2=O)cc1 reported="> 100 µM"
compound="CC(=O)OC(CCC1(C)OC1COc1ccc(CCNC(=O)c2ccccc2)cc1)C(C)(C)OC(C)=O (stereo not given)" reported="> 100 µM"
compound=CC(C)(C)c1cc2c3c(c1)C(C(F)(F)F)(C(F)(F)F)O[Te]3(C)OC2(C(F)(F)F)C(F)(F)F reported="> 100 µM"
compound=CCCCCCCCCc1cccc(N2C(N)=NC(N)=NC2(C)C)c1 reported="1.3 µM"
